Experimental target: T1, human CGRP receptor (CRLR + RAMP1) (human, UniProt Q16602 23-461; O60894 27-148)
T1 construct: also called hCGRP R; huCGRP R
T1 sequence (Q16602 23-461 limits assumed, chain 1 of 2): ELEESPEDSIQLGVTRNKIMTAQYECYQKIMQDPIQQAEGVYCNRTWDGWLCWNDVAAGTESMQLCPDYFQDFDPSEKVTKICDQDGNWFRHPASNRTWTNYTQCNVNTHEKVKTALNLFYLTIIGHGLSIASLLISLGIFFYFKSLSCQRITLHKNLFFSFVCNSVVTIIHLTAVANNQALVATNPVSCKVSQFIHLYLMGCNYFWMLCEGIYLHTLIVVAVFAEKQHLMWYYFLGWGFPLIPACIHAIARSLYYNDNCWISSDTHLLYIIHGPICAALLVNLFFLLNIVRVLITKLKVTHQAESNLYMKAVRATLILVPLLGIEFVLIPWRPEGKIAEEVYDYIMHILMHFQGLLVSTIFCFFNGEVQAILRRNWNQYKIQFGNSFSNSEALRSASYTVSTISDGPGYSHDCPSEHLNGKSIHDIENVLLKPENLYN
T1 sequence (O60894 27-148 limits assumed, chain 2 of 2): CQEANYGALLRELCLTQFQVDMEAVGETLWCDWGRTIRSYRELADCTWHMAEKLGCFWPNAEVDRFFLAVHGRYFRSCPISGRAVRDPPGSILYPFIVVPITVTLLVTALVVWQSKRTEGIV
Test summary: FACS on AM-1 CHO huCGRP R cells, KinExA n-curve analysis
pKd: −log10 of the molar value.
Property name: pKd

Binder	Recorded result
12G8 (antibody, human IgG2, lambda, V domains shown, also called 12G8.2) VH: QVQLVESGGGVVQPGRSLRLSCAASGFTFSSFGMHWVRQAPGKGLEWVAVISFDGSIKYSVDSVKGRFTISRDNSKNTLFLQMNSLRAEDTAVYYCARDRLNYYDSSGYYHYKYYGLAVWGQGTTVTVSS VL: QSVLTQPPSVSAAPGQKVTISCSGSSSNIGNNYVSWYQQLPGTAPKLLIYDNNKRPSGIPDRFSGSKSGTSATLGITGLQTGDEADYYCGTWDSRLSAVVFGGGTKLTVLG	8.85
2E7 (antibody, human IgG2, kappa, V domains shown, also called 02E7; 02E7.2) VH: EVQLLESGGGLVQPGESLRLSCAASGFTFSSYAMSWVRQAPGKGLEWVSAISGSGGRTYYADSVKGRFTISRDNSKNTLYLQMNSLRAEDTAVYYCAKDQREVGPYSSGWYDYYYGMDVWGQGTTVTVSS VL: DIQMTQSPSSLSASVGDRVTITCRASQGIRNDLGWFQQKPGKAPKRLIYAASSLQSGVPSRFSGSGSGTEFTLTISSLQPEDLATYYCLQYNIYPWTFGQGTKVEIKR	8.82
12E8 (antibody, human IgG2, kappa, V domains shown, also called 12E8.2) VH: QVQLVESGGGVVQPGRSLRLSCAASGFTFSSYGMHWVRQAPGKGLEWVAVISYDGSHESYADSVKGRFTISRDISKNTLYLQMNSLRAEDTAVYFCARERKRVTMSTLYYYFYYGMDVWGQGTTVTVSS VL: DITLTQTPLSLSVSPGQPASISCKSSQSLLHSDGRNYLYWYLQKPGQPPQLLIYEVSNRFSGLPDRFSGSGSGTDFTLKISRVEAEDVGIYYCMQSFPLPLTFGGGTKVEIKR	8.64
9D4 (antibody, human IgG2, lambda, V domains shown, also called 09D4; 09D4.2) VH: QVQLVESGGGVVQPGRSLRLSCAASGFTFSSFGMHWVRQAPGKGLEWVAVISFDGSIKYSVDSVKGRFTISRDNSKNTLFLQMNSLRAEDTAVYYCARDRLNYYDSSGYYHYKYYGMAVWGQGTTVTVSS VL: QSVLTQPPSVSAAPGQKVTISCSGSSSNIGNNYVSWYQQFPGTAPKLLIYDNNKRPSGIPDRFSGSKSGTSATLGITGLQTGDEADYYCGTWDSRLSAVVFGGGTKLTVLG	8.60
